Consider the following sequences; for each one, report its pIC50.
# target-or-system: HLA-A*02:03
# measurement-protocol: IEDB peptide-MHC binding, purified MHC/competitive/radioactivity; bounds were set here for any values at or beyond the usual limits of such assays
# experimental-setup: source organism: Vaccinia virus WR
Give bare numbers, as −log10 of the molar value.

YIESKAKQL : 6.36

// input: 4 sequences below; output: pIC50 for each
1. FLDWIKDIMT
2. IIAVFDSKL
3. GTSVIRSNI
4. STYPGNTFV

Given back:
1: 6.84; 2: 6.97; 3: 7.35; 4: 9.72

Give measured pIC50 for every item shown.
1. LLENKSLTIL
2. QLMYDIINSV
3. NTKSDNIINI

Given back:
1: 6.27; 2: 9.85; 3: 5.96

Provenance of the data: the Immune Epitope Database (IEDB)
